Biological target: human H3 receptor (Homo sapiens, UniProt Q9Y5N1)
Construct: expressed in transfected cells
Sequence (Q9Y5N1 whole entry): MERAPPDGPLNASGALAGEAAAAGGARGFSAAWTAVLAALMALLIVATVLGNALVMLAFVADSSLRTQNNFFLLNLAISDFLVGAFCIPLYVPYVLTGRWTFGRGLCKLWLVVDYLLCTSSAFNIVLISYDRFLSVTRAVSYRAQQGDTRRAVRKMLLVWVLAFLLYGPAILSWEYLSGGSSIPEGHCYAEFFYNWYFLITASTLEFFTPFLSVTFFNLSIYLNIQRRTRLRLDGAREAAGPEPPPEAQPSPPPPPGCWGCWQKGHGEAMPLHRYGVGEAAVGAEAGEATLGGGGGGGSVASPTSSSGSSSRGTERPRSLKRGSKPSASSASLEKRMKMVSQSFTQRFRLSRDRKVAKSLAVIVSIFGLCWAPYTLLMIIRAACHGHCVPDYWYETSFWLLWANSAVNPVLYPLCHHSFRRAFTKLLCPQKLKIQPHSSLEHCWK
Assay: Cyclic AMP accumulation (β-galactosidase reporter, Schild analysis)
Assay type: cell-based
Conditions: SK-N-MC cells expressing human H3 receptor and CRE-β-galactosidase reporter; histamine agonist, forskolin 5 μM; Schild regression of pEC50 values; read-out: pA2 (converted)
Here the recorded log10 Kb is given for each entry.
log10 Kb, nM

{"compound": "CN1Cc2cc(OCCCN3CCOCC3)ccc2C(c2ccc(OC(F)F)cc2)C1 (centres unmarked) [Example 214]", "tested.system": "human H3 receptor (Homo sapiens, UniProt Q9Y5N1)", "log10 Kb": 0.80}
{"compound": "CN1Cc2cc(OCCCN3CCCCC3)ccc2C(c2cccnc2)C1 (centres unmarked) [Example 59]", "tested.system": "human H3 receptor (Homo sapiens, UniProt Q9Y5N1)", "log10 Kb": -0.90}

Give the reported log10 Kb for COc1ccc(C2CN(C)Cc3cc(OCCCN4CCC(F)(F)CC4)ccc32)cc1 (centres unmarked) [Example 8] (system: human H3 receptor (Homo sapiens, UniProt Q9Y5N1)).
0.70

Give the reported log10 Kb for COc1cccc(C2CN(C)Cc3cc(OCCCN4CCC(F)CC4)ccc32)c1 (racemic) [Example 44] (system: human H3 receptor (Homo sapiens, UniProt Q9Y5N1)).
-0.10

Give the reported log10 Kb for COc1ccc(C2CNCc3cc(OCCCN4CCC(F)CC4)ccc32)cc1 (centres unmarked) [Example 147] (system: human H3 receptor (Homo sapiens, UniProt Q9Y5N1)).
1.00

Give the reported log10 Kb for CSc1ccc(C2CN(C)Cc3cc(OCC4CN(C5CCC5)C4)ccc32)cc1 (centres unmarked) [Example 238] (system: human H3 receptor (Homo sapiens, UniProt Q9Y5N1)).
1.10

Give the reported log10 Kb for COc1ccc(C2CN(C)Cc3cc(OCCCN4CC[C@@H](N(C)C)C4)ccc32)cc1 (stereo in doubt) [Example 10] (system: human H3 receptor (Homo sapiens, UniProt Q9Y5N1)).
0.60

Give the reported log10 Kb for CN1Cc2cc(CCCCN3CCCCC3)ccc2C(c2cccnc2)C1 (centres unmarked) [Example 273] (system: human H3 receptor (Homo sapiens, UniProt Q9Y5N1)).
0.30

Give the reported log10 Kb for CN1Cc2cc(OCCCN3CCOCC3)ccc2C(c2ccc([S+](C)[O-])cc2)C1 (single isomer, unassigned) [Example 165A] (system: human H3 receptor (Homo sapiens, UniProt Q9Y5N1)).
0.50

Give the reported log10 Kb for CCCN1CCC(COc2ccc3c(c2)CN(C)CC3c2ccc(OC)cc2)CC1 (centres unmarked) [Example 85] (system: human H3 receptor (Homo sapiens, UniProt Q9Y5N1)).
0.80

Give the reported log10 Kb for COc1ccc(C2CN(C)Cc3cc(OCCCN4CCC(C#N)CC4)ccc32)cc1 (single isomer, unassigned) [Example 37B] (system: human H3 receptor (Homo sapiens, UniProt Q9Y5N1)).
0.70

Give the reported log10 Kb for COc1ccc(C2CN(C)Cc3cc(OCCCN4CCC(O)CC4)ccc32)cc1 (centres unmarked) [Example 21] (system: human H3 receptor (Homo sapiens, UniProt Q9Y5N1)).
1.10
